testedSystem: BG505.SOSIP.664.201C-433C HIV-1 Env ectodomain trimer
experimentSummary: BLI
pKd: recorded values
Please note pKd is a logarithmic value: minus log10 of concentration in mol/L. Answer with that number alone.

[
  {
    "binder": "PGT151 Fab (Fab, V domains shown) VH: RVQLVESGGGVVQPGKSVRLSCVVSDFPFSKYPMYWVRQAPGKGLEWVAAISGDAWHVVYSNSVQGRFLVSRDNVKNTLYLEMNSLKIEDTAVYRCARMFQESGPPRLDRWSGRNYYYYSGMDVWGQGTTVTVSS VL: DIVMTQTPLSLSVTPGQPASISCKSSESLRQSNGKTSLYWYRQKPGQSPQLLVFEVSNRFSGVSDRFVGSGSGTDFTLRISRVEAEDVGFYYCMQSKDFPLTFGGGTKVDLKR",
    "pKd": 6.69
  }
]

Now, please, on to the next binder.
Q: Read the entry PGT145 antibody (antibody, V domains shown) VH: QVQLVQSGAEVKKPGSSVKVSCKASGNSFSNHDVHWVRQATGQGLEWMGWMSHEGDKTGLAQKFQGRVTITRDSGASTVYMELRGLTADDTAIYYCLTGSKHRLRDYFLYNEYGPNYEEWGDYLATLDVWGHGTAVTVSS VL: EVVITQSPLFLPVTPGEAASLSCKCSHSLQHSTGANYLAWYLQRPGQTPRLLIHLATHRASGVPDRFSGSGSGTDFTLKISRVESDDVGTYYCMQGLHSPWTFGQGTKVEIK and write its reported pKd.
Result: 8.77
